These data points were gathered from paper PMC5962679.

# Target entity: HLA-DRB1*0401 (Homo sapiens, UniProt P01903+P01911, A100K/A169T/F76Y/I96L/K127E/L162R/M171V/N62H/P40V/Q125Y/R42H/S133A/S149N/S66Y/V115G/V209L/W38E)
# Construct: homozygous lymphoblastoid B-cell lines (International Histocompatibility Working Group); host or cells: human HLA-DRB1*0401 homozygous lymphoblastoid B-cell line
# Experiment notes: biochemical
# Type: binding
# Settings: 24 h, read-out: Binding percentage
Ends that are not written are not given here.
Listed sequences paired with reported inhibition at 250 µM
I'd appreciate it if you included the unit after the number.

The following sequences have reported results that may help.
LKFIVRGNNLKFLNN [compound 39154]: 22.2%
RGPVNYHFSNYMNLD [compound 39047]: 59.8%
MKLLQHIPANLLENI [compound 39153]: 61.2%

Turning now to a further sequence:
So, LFYVNLFIMSSLSRK [compound 39152] ? Its inhibition at 250 µM was 65.8%

----------
# Target entity: HLA-DRB1*1302 (Homo sapiens, UniProt P01903+P01911, A100E/A169T/K41T/L162R/M171V/P40S/Q125H/Q178H/Q39Y/Q99D/R42S/S66N/T262R/V115G/W38E/Y61H)
# Sequence (P01903 26-254 limits assumed, other chains not shown): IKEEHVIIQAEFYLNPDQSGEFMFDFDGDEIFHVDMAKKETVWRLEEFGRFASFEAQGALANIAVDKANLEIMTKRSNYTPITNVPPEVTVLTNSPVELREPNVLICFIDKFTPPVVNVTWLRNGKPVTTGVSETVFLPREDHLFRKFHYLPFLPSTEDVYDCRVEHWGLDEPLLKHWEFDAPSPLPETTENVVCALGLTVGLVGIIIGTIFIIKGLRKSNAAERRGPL
# Experiment notes: biochemical
# Type: binding
# Settings: 24 h, read-out: Binding percentage
Ends that are not written are not given here.
Listed sequences paired with reported inhibition at 250 µM
# number only, unit % dropped from output

The following sequences have reported results that may help.
LKFIVRGNNLKFLNN [compound 39154]: 90.1
MKLLQHIPANLLENI [compound 39153]: 91.9
RGPVNYHFSNYMNLD [compound 39047]: 37.8

So, LFYVNLFIMSSLSRK [compound 39152] ? Its inhibition at 250 µM was 94.7

----------
# Target entity: HLA-DRB1*1101 (Homo sapiens, UniProt P01903+P01911, A100R/A169T/A87E/I96F/K41T/L162R/M171V/P40S/Q125H/Q178H/Q39Y/Q99D/R42S/S66Y/T262R/V115G/W38E)
# Experiment notes: biochemical
# Type: binding
# Settings: 24 h, read-out: Binding percentage
Ends that are not written are not given here.
Measure name: inhibition at 250 µM (%)
# number only, unit % dropped from output

LKFIVRGNNLKFLNN [compound 39154]: 24.9
RGPVNYHFSNYMNLD [compound 39047]: 0
LFYVNLFIMSSLSRK [compound 39152]: 91.8

Turning now to a further sequence:
So, MKLLQHIPANLLENI [compound 39153] ? Its inhibition at 250 µM was 72.7

----------
Listed sequences paired with reported pIC50
# Target entity: HLA-DRB1*1302 (Homo sapiens, UniProt P01903+P01911, A100E/A169T/K41T/L162R/M171V/P40S/Q125H/Q178H/Q39Y/Q99D/R42S/S66N/T262R/V115G/W38E/Y61H)
# Experiment notes: biochemical
# Format: binding
Ends that are not written are not given here.
pIC50 is defined as minus the log10 of a concentration measured in mol/L.

The following sequences have reported results that may help.
MKLLQHIPANLLENI [compound 39153]: 4.97
LFYVNLFIMSSLSRK [compound 39152]: 5.10

Turning now to a further sequence:
So, LKFIVRGNNLKFLNN [compound 39154] ? Its pIC50 was 5.19

----------
Listed sequences paired with reported inhibition at 250 µM
# Target entity: HLA-DRB1*0701 (Homo sapiens, UniProt P01903+P01911, A100R/A102G/A103Q/D57E/D86V/E43K/F76Y/K127E/L162R/M171V/P40G/Q125H/Q99D/R33Q/R42Y/R54Q/S133A/S66F/T210M/V115G/Y107V/Y59L/Y89S)
# Experiment notes: biochemical
# Assay type: binding
# Settings: 24 h, read-out: Binding percentage
Ends that are not written are not given here.
# number only, unit % dropped from output

LFYVNLFIMSSLSRK [compound 39152]: 11

So, MKLLQHIPANLLENI [compound 39153] ? Its inhibition at 250 µM was 85.4

So, RGPVNYHFSNYMNLD [compound 39047] ? Its inhibition at 250 µM was 90.4

So, LKFIVRGNNLKFLNN [compound 39154] ? Its inhibition at 250 µM was 43.7

----------
# Target entity: HLA-DRB1*0401 (Homo sapiens, UniProt P01903+P01911, A100K/A169T/F76Y/I96L/K127E/L162R/M171V/N62H/P40V/Q125Y/R42H/S133A/S149N/S66Y/V115G/V209L/W38E)
# Construct: homozygous lymphoblastoid B-cell lines (International Histocompatibility Working Group); host or cells: human HLA-DRB1*0401 homozygous lymphoblastoid B-cell line
# Experiment notes: biochemical
# Format: binding
Ends that are not written are not given here.
Measure name: IC50 (µM)
# number only, unit µM dropped from output

The following sequences have reported results that may help.
LFYVNLFIMSSLSRK [compound 39152]: 2.8
RGPVNYHFSNYMNLD [compound 39047]: 54.5

So, MKLLQHIPANLLENI [compound 39153] ? Its IC50 was 57

----------
# Target entity: HLA-DRB1*0701 (Homo sapiens, UniProt P01903+P01911, A100R/A102G/A103Q/D57E/D86V/E43K/F76Y/K127E/L162R/M171V/P40G/Q125H/Q99D/R33Q/R42Y/R54Q/S133A/S66F/T210M/V115G/Y107V/Y59L/Y89S)
# Experiment notes: biochemical
# Format: binding
Ends that are not written are not given here.
Listed sequences paired with reported IC50
# number only, unit µM dropped from output

RGPVNYHFSNYMNLD [compound 39047]: 6

Turning now to a further sequence:
So, MKLLQHIPANLLENI [compound 39153] ? Its IC50 was 7.5
